- tested target: human ERK-2 (Mitogen Activated Kinase 1) (Homo sapiens (Human))
- Sequence (P28482 8-360): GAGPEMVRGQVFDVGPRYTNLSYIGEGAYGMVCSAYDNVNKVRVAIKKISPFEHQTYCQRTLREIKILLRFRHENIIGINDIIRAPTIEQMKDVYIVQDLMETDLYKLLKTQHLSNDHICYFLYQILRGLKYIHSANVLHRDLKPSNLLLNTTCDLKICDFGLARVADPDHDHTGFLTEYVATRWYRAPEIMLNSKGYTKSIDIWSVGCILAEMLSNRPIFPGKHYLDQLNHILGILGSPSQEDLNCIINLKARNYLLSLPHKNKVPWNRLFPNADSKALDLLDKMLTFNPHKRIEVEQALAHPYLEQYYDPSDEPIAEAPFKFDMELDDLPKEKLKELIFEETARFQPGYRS
- test method notes: ERK-2 Enzymatic Assay
- Format: biochemical
- test context: 25 uM ATP, Omnia peptide S/T17; read-out: Erk Enzymatic Assay IC50
Each record gets a class by IC50: Low (below 2 nM), Medium (2 nM to below 4 nM), High (4 nM or more)

Cn1cc([C@@H](NC(=O)c2ccc3cnc(Nc4ccnn4C)cc3c2)c2ccc(Cl)c(F)c2)cn1 Medium
CC[C@@H](NC(=O)c1ccc2cnc(NC3CCOCC3)cc2n1)c1ccc(OC)c(F)c1 Medium
COc1ccc([C@@H]2CN(C)C[C@H]2NC(=O)c2ccc3cnc(Nc4cc(C)nn4C)cc3c2)cc1 Medium
C[C@@H](CO)Nc1cc2cc(C(=O)NCc3cc4c(F)cccc4[nH]3)ccc2cn1 High
O=C(NCCc1ccccc1)c1ccc2cnc(NC3CCOCC3)cc2n1 High
COc1ccc([C@H](NC(=O)c2ccc3cnc(NC4CCOCC4)cc3n2)c2cnn(C)c2)cc1F Low
CC[C@@H](NC(=O)c1ccc2cnc(NC3CCOCC3)cc2c1)c1ccc(Cl)c(F)c1 Medium
O=C(N[C@H](CO)c1ccc(Cl)c(F)c1)c1ccc2cnc(NC3CCOCC3)cc2c1 Medium
COc1ccc([C@H](NC(=O)c2ccc3cnc(N[C@@H](C)CO)cc3n2)c2cnn(C)c2)cc1F Low
COc1ccc([C@H](NC(=O)c2ccc3cnc(Nc4cc(C)nn4C)cc3c2)c2cnn(C)c2)cc1F High
CC[C@@H](NC(=O)c1ccc2cnc(Nc3cc(C)nn3C)cc2c1)c1ccc(Cl)c(F)c1 High
O=C(NCc1ccc(Cl)c(F)c1)c1ccc2cnc(NC3CCOCC3)cc2n1 Medium
